target: truncated XIAP containing only BIR1, BIR2, and BIR3 domains (Homo sapiens, UniProt P98170); construct: truncated XIAP containing only BIR1, BIR2, and BIR3 domains; assay: Fluorescent polarization assay (Bir binding); conditions: competition with 2 nM fluorescein labeled AVPI peptide, room temperature, 1 hour
Sequence (P98170 1-356 limits assumed): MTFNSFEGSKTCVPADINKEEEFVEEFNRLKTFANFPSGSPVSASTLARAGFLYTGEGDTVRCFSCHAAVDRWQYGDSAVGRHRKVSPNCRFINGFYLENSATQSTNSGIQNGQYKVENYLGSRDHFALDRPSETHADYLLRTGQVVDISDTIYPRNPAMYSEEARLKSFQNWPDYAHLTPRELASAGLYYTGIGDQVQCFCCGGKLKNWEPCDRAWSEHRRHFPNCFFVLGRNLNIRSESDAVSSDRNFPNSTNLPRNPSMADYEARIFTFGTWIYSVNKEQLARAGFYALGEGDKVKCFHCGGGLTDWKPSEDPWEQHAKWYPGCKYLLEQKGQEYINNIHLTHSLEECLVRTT
measurementKind: Bir binding (µM)

Below: 2 molecules and their reported Bir binding.
CN[C@@H](C)C(=O)N[C@@H](CCCc1ccc([C@H](NC(=O)[C@H](C)NC)C(=O)N2CCC[C@H]2C(=O)N[C@@H]2CCCc3ccccc32)cc1)C(=O)N1CCC[C@H]1C(=O)N[C@@H]1CCCc2ccccc21 [Compound 28]    0.2
CN[C@@H](C)C(=O)N[C@@H](CC#CC#CC[C@H](NC(=O)[C@H](C)NC)C(=O)N1CCC[C@H]1C(=O)NC(C)c1ccccc1)C(=O)N1CCC[C@H]1C(=O)NC(C)c1ccccc1 (stereo partly shown) [Compound 7]    0.144

A. C=C(C#CCO[C@H](C)[C@H](NC(=O)[C@H](C)NC)C(=O)N1CCC[C@H]1C(=O)N[C@@H]1CCCc2ccccc21)CO[C@H](C)[C@H](NC(=O)[C@H](C)NC)C(=O)N1CCC[C@H]1C(=O)N[C@@H]1CCCc2ccccc21.Cl.Cl [Compound 42]
B. CN[C@@H](C)C(=O)N[C@H](C(=O)N1CCC[C@H]1C(=O)N[C@@H]1CCCc2ccccc21)c1ccc(C#CCO[C@H](C)[C@H](NC(=O)[C@H](C)NC)C(=O)N2CCC[C@H]2C(=O)N[C@@H]2CCCc3ccccc32)cc1 [Compound 32]
Exercise: Consider entries A and B . Which has the numerically lower Bir binding? Write down the label of the entry you select.
Key: B

----------
tested on: HCC461 cells; test: Cell viability assay in HCC461 cells (WST-1); assay type: cell-based; settings: HCC461; 48 hrs incubation, WST-1 viability; read-out: HCC461 cell
pIC50: −log10 of the molar value.
measurementKind: pIC50

CC[C@H](NC)C(=O)N[C@H](C(=O)N1CCC[C@H]1C(=O)N[C@@H]1CCCc2ccccc21)c1ccc(C#CCO[C@H](C)[C@H](NC(=O)[C@H](C)NC)C(=O)N2CCC[C@H]2C(=O)N[C@@H]2CCCc3ccccc32)cc1.Cl.Cl [Compound 39]    6.80
CN[C@@H](C)C(=O)N[C@@H](CCCCNC(=O)c1cccc(C(=O)NCCCC[C@H](NC(=O)[C@H](C)NC)C(=O)N2CCC[C@H]2C(=O)N[C@@H]2CCCc3ccccc32)c1)C(=O)N1CCC[C@H]1C(=O)N[C@@H]1CCCc2ccccc21.Cl.Cl [Compound 47]    7.70
CN[C@@H](C)C(=O)N[C@@H](Cc1nnn2c1-c1c(C[C@H](NC(=O)[C@H](C)NC)C(=O)N3CCC[C@H]3C(=O)N[C@@H]3CCCc4ccccc43)nnn1CCC2)C(=O)N1CCCC1C(=O)N[C@@H]1CCCc2ccccc21.Cl.Cl (stereo partly drawn) [Compound 18]    6.12
CNC(C)C(=O)N[C@@H](CCCCCC[C@H](NC(=O)[C@H](C)NC)C(=O)N1CCC[C@H]1C(=O)NC(c1ccccc1)c1ccccc1)C(=O)N1CCC[C@H]1C(=O)NC(c1ccccc1)c1ccccc1 (stereo partly drawn) [Compound 4]    7.60

A. CN[C@@H](C)C(=O)N[C@@H](CC#CC#CC[C@H](NC(=O)[C@H](C)NC)C(=O)N1CCC[C@H]1C(=O)NC(C)c1ccccc1)C(=O)N1CCC[C@H]1C(=O)NC(C)c1ccccc1 (stereo partly drawn) [Compound 7]
B. CN[C@@H](C)C(=O)N[C@@H](Cc1ccc(OCCCCOc2ccc(C[C@H](NC(=O)[C@H](C)NC)C(=O)N3CCCC3C(=O)N[C@@H]3CCCc4ccccc43)cc2)cc1)C(=O)N1CCCC1C(=O)N[C@@H]1CCCc2ccccc21.Cl.Cl (stereo partly drawn) [Compound 45]
Exercise: // max by pIC50 over [ A , B ] Write down the label of the entry you select.
Key: B
(B: 8.70, A: 6.43)

----------
biological target: truncated XIAP containing only BIR1, BIR2, and BIR3 domains (Homo sapiens, UniProt P98170); construct: truncated XIAP containing only BIR1, BIR2, and BIR3 domains; assay: Fluorescent polarization assay (Bir binding); conditions: competition with 2 nM fluorescein labeled AVPI peptide, room temperature, 1 hour
measurementKind: Bir binding (µM)

Below: 2 compounds and their reported Bir binding.
CN[C@@H](C)C(=O)N[C@H](C(=O)N1CCC[C@H]1C(=O)N[C@@H]1CCCc2ccccc21)[C@@H](C)OCc1cn(CCn2cc(CO[C@H](C)[C@H](NC(=O)[C@H](C)NC)C(=O)N3CCC[C@H]3C(=O)N[C@@H]3CCCc4ccccc43)nn2)nn1.Cl.Cl    0.13
CC[C@H](NC)C(=O)N[C@@H](CC#CC#CC[C@H](NC(=O)[C@H](C)NC)C(=O)N1CCC[C@H]1C(=O)N[C@@H]1CCCc2ccccc21)C(=O)N1CCC[C@H]1C(=O)N[C@@H]1CCCc2ccccc21.Cl.Cl    0.22

P. CN[C@@H](C)C(=O)N[C@H](C(=O)N1CCC[C@H]1C(=O)N[C@@H]1CCCc2ccccc21)[C@@H](C)OCC#CC=CCO[C@H](C)[C@H](NC(=O)[C@H](C)NC)C(=O)N1CCC[C@H]1C(=O)N[C@@H]1CCCc2ccccc21.Cl.Cl
Q. CNC(C)C(=O)N[C@@H](CC#CC#CC[C@H](NC(=O)[C@H](C)NC)C(=O)N1CCC[C@H]1C(=O)NC(c1ccccc1)c1ccccc1)C(=O)N1CCC[C@H]1C(=O)NC(c1ccccc1)c1ccccc1 (stereo partly shown)
Exercise: Consider entries P and Q . Which has the numerically lower Bir binding? Write down the label of the entry you select.
Key: Q
(Q: 0.12 µM, P: 0.172 µM)

----------
test system: HCC461 cells; test: Cell viability assay in HCC461 cells (WST-1); format: cell-based; conditions: HCC461; 48 hrs incubation, WST-1 viability; read-out: HCC461 cell
pIC50: −log10 of the molar value.
measurementKind: pIC50

Below: 3 molecules and their reported pIC50.
CN[C@@H](C)C(=O)N[C@H](C(=O)N1CCCC1)c1ccc(C#CCO[C@H](C)[C@H](NC(=O)[C@H](C)NC)C(=O)N2CCC[C@H]2C(=O)N[C@@H]2CCCc3ccccc32)cc1.Cl.Cl    7.52
CN[C@@H](C)C(=O)N[C@H](C(=O)N1CCCC1C(=O)N[C@@H]1CCCc2ccccc21)[C@@H](C)OCCCCCCO[C@H](C)[C@H](NC(=O)[C@H](C)NC)C(=O)N1CCC[C@H]1C(=O)N[C@@H]1CCCc2ccccc21.Cl.Cl (some centres unmarked)    6.21
CN[C@@H](C)C(=O)N[C@@H](Cc1ccc(C#CC[C@H](NC(=O)[C@H](C)NC)C(=O)N2CCC[C@H]2C(=O)N[C@@H]2CCCc3ccccc32)cc1)C(=O)N1CCC[C@H]1C(=O)NC1CCCc2ccccc21.Cl (some centres unmarked)    7.30

A. CN[C@@H](C)C(=O)N[C@@H](CCCCCC[C@H](NC(=O)[C@H](C)NC)C(=O)N1CCC[C@H]1C(=O)NC(C)c1ccccc1)C(=O)N1CCC[C@H]1C(=O)NC(C)c1ccccc1 (some centres unmarked)
B. CN[C@@H](C)C(=O)N[C@H](C(=O)N1CCC[C@H]1C(=O)N[C@@H]1CCCc2ccccc21)[C@@H](C)OCC#CC=CCO[C@H](C)[C@H](NC(=O)[C@H](C)NC)C(=O)N1CCC[C@H]1C(=O)N[C@@H]1CCCc2ccccc21.Cl.Cl
C. CN[C@@H](C)C(=O)N[C@H](C(=O)N1CCC[C@H]1C(=O)N[C@@H]1CCCc2ccccc21)[C@@H](C)OCc1nnn2c1-c1c(CO[C@H](C)[C@H](NC(=O)[C@H](C)NC)C(=O)N3CCC[C@H]3C(=O)N[C@@H]3CCCc4ccccc43)nnn1CCC2.Cl.Cl
D. CN[C@@H](C)C(=O)N[C@@H](Cc1ccc(OC/C=C\COc2ccc(C[C@H](NC(=O)[C@H](C)NC)C(=O)N3CCCC3C(=O)N[C@@H]3CCCc4ccccc43)cc2)cc1)C(=O)N1CCCC1C(=O)N[C@@H]1CCCc2ccccc21.Cl.Cl (some centres unmarked)
E. CN[C@@H](C)C(=O)N[C@H](C(=O)N1CCC[C@H]1C(=O)N[C@@H]1CCCc2ccccc21)[C@@H](C)OCc1cn(CCn2cc(CO[C@H](C)[C@H](NC(=O)[C@H](C)NC)C(=O)N3CCC[C@H]3C(=O)N[C@@H]3CCCc4ccccc43)nn2)nn1.Cl.Cl
Exercise: Order the records so the highest pIC50 appears first and the lowest last. Field: ranking. Enter the labels in the order requested.
Key: D, B, A, C, E

----------
System: HCC461 cells
Assay: Cell viability assay in HCC461 cells (WST-1)
Format: cell-based
Settings: HCC461; 48 hrs incubation, WST-1 viability; read-out: HCC461 cell
Protocol: HCC461 cells plated in 96 well plates at 5×10^4/ml cell density are treated with 50× synthetic Smac mimetic compounds (final concentration range between 30 uM and 0.001 uM). After 48 hrs incubation at 37° C. and 5% CO2, viability of the cells are measured using Cell Proliferation Reagent WST-1 assay kit (Roche Cat #11 644 807 001). The tetrazolium salts are cleaved to formazan by cellular enzymes. […]
pIC50: −log10 of the molar value.
measurementKind: pIC50

A. CN[C@@H](C)C(=O)N[C@@H](CCCc1ccc([C@H](NC(=O)[C@H](C)NC)C(=O)N2CCC[C@H]2C(=O)N[C@@H]2CCCc3ccccc32)cc1)C(=O)N1CCC[C@H]1C(=O)N[C@@H]1CCCc2ccccc21 [Compound 28]
B. CN[C@@H](C)C(=O)N[C@H](C(=O)N1CCC[C@H]1C(=O)N[C@@H]1CCCc2ccccc21)[C@@H](C)OCc1nnn2c1-c1c(CO[C@H](C)[C@H](NC(=O)[C@H](C)NC)C(=O)N3CCC[C@H]3C(=O)N[C@@H]3CCCc4ccccc43)nnn1CC2.Cl.Cl [Compound 23]
Exercise: Consider entries A and B . Which has the numerically lower pIC50? Write down the label of the entry you select.
Key: B

Source listed as patent US8586542B2.
